All values here come from patent EP0210342A2.

# ASSAY_TEXT: Acute toxicity in mice (LD50, 14 days observation)
# Set-up: species or system Mäusen
# CONDITION_NOTES: mouse, in vivo, po, observation 14 days
ENDPOINT_LABEL: LD50 at 336 h

[in] Form field: reported LD50 at 336 h of COc1ccc2nc(-c3ccc(OCC(O)CNC(C)(C)C)cc3)n(C)c(=O)c2c1 (stereo not shown) [Verbindung B]
[out] 750 mg/kg

====

# ASSAY_TEXT: Acute toxicity in mice (LD50, 14 days observation)
# Parameters: species or system Mäusen
# CONDITION_NOTES: mouse, in vivo, iv, observation 14 days
ENDPOINT_LABEL: LD50 at 336 h (mg/kg)
The answer is to be given in mg/kg; state only the numeric part.

[in] Give the measured LD50 at 336 h of COc1ccc2nc(-c3ccc(OCC(O)CNC(C)(C)C)cc3)n(C)c(=O)c2c1 (stereo not shown) .
[out] 75
